Test system: SK-MEL-5 melanoma
Run Description: NCI tumour cell line growth inhibition, 48 h
Result Type: TGI

Examples with answers:
[[record]]
compound = "CC(=O)N[C@@H](Cc1ccc(OP(=O)(O)O)cc1)C(=O)N[C@H]1CCC(=O)N2CCC[C@@H](C(=O)NC3CCc4ccccc43)N2C1=O (some centres not stated)"
result_value = "> 25 µM"

[[record]]
compound = "COC(=O)Nc1nc2ccc(C(=O)c3ccc(F)cc3)cc2[nH]1"
result_value = "> 24.2 µM"

[[record]]
compound = "CCn1ncc(N=O)c1N"
result_value = "> 100 µM"

[[record]]
compound = "Cn1c(=O)cc(Nc2ccc(N)cc2)[nH]c1=O"
result_value = "> 100 µM"

[[record]]
compound = "CC#CC#C/C=C1\\C=CC2(OC=CC2O)O1 (configuration not stated)"
result_value = "> 23.3 µM"

[[record]]
compound = "COC(=O)c1c2c(cc3c1CC1(C3)Cc3cc4c(c(C(=O)OC)c3C1)CCC4)CCC2"
result_value = "> 100 µM"


For "COc1cc2c(cc1-c1coc3cc(O)ccc3c1=O)OCO2" on SK-MEL-5 melanoma, measured TGI was > 100 µM

For O=C(OCC(OC(=O)c1ccccc1)C1CC(C2(O)CCCCC2)C(=O)O1)c1ccccc1 (configuration not stated) on SK-MEL-5 melanoma, measured TGI was > 25 µM

For "COC(=O)C1Cc2cc3c(cc2C1)CCC3" on SK-MEL-5 melanoma, measured TGI was > 100 µM

---

Tested on: DU-145 prostate
Run Description: NCI tumour cell line growth inhibition, 48 h
Result Type: TGI

[[record]]
compound = "CCn1ncc(N=O)c1N"
result_type = "TGI"
result_value = "> 100 µM"

[[record]]
compound = "C=C1CC[C@@H]2[C@](C)(COC(=O)CCC(=O)O)CCC[C@@]2(C)[C@@H]1CCC1=CC(=O)OC1"
result_type = "TGI"
result_value = "38.7 µM"

[[record]]
compound = "NS(=O)(=O)c1ccc(NC(=O)c2ccc3nc4ccccc4c(Nc4ccc(S(N)(=O)=O)cc4)c3c2)cc1"
result_type = "TGI"
result_value = "> 100 µM"

[[record]]
compound = "Cn1cnc(C(=N)[Se])c1N"
result_type = "TGI"
result_value = "> 100 µM"


For "O=C(Nc1ccc(Cl)cc1)c1cc(S(=O)(=O)N2CCNNC2=O)c(S)cc1Cl" on DU-145 prostate, measured TGI was > 100 µM

For "C=C(C)[C@H]1CC(=O)[C@@]2(C)C[C@H]3O[C@]3(C)CC/C=C(\C)CC[C@H]12" on DU-145 prostate, measured TGI was > 100 µM

For "O=C(CCCn1ccnc1[N+](=O)[O-])NCCn1cnc([N+](=O)[O-])n1" on DU-145 prostate, measured TGI was > 100 µM

For "CC/C=C\C=C/C(=O)N/C=C/CCC" on DU-145 prostate, measured TGI was > 100 µM

For Nc1nc(N)c2c(n1)CCC(S(=O)(=O)c1ccc3ccccc3c1)C2 (centres undefined) on DU-145 prostate, measured TGI was > 100 µM

For "CCCCCCc1cc2cc(C(=O)Nc3cccc(F)c3)c(=N)oc2cc1O" on DU-145 prostate, measured TGI was 12.2 µM

For CC(C)[Si](Oc1ccc(CC2N(C(=O)c3ccc([N+](=O)[O-])cc3)C(CCc3ccccc3)CC2(C)C=O)cc1)(C(C)C)C(C)C (centres undefined) on DU-145 prostate, measured TGI was > 100 µM

For "COc1ccc(Nc2cc(=O)[nH]c(=O)[nH]2)cc1" on DU-145 prostate, measured TGI was > 100 µM

For "Cn1c(=S)[nH]c(N)c(Cc2ccccc2)c1=O" on DU-145 prostate, measured TGI was > 100 µM

For "COc1ccc2c(ccc3c(C(=O)NCCCN(C)CCCNC(=O)c4cn(C)c5c4ccc4cc(OC)ccc45)cn(C)c32)c1" on DU-145 prostate, measured TGI was 3.17 µM

For O=C(NN1C(=O)CSC1c1c(Cl)cccc1Cl)C(O)c1ccccc1 (centres undefined) on DU-145 prostate, measured TGI was > 100 µM

For "C=CCOCn1cnc2c(=O)[nH]c(N)nc21" on DU-145 prostate, measured TGI was > 100 µM

For "O=C(/C=C/C=C/c1ccc2c(c1)OCO2)N/N=C\c1ccc(O)cc1O" on DU-145 prostate, measured TGI was 22.3 µM

For "COc1ccc(-c2c3c(nc4nc(SCC(=O)c5ccc(Br)cc5)nc(N)c24)CCCC3)cc1OC" on DU-145 prostate, measured TGI was > 100 µM

For "CCCCCCCCCCCCc1ccsc1-c1ccc(-c2ccc(-c3sccc3CCCCCCCCCCCC)s2)s1" on DU-145 prostate, measured TGI was > 100 µM

---

System: OVCAR-3 ovarian
Run Description: NCI tumour cell line growth inhibition, 48 h
Result Type: TGI

Examples with answers:
[[record]]
compound = "O=C(CC1(O)C(=O)Nc2ccccc21)c1ccccc1O (configuration not stated)"
result_type = "TGI"
result_value = "> 100 µM"

[[record]]
compound = "COc1c(B(O)O)cccc1-c1nc2c(F)cc3n[nH]c(C)c3c2c2c1CCCC2"
result_type = "TGI"
result_value = "> 50 µM"

[[record]]
compound = "Nc1nc(N)c2c(n1)CCC(S(=O)(=O)c1ccc3ccccc3c1)C2 (configuration not stated)"
result_type = "TGI"
result_value = "> 82.9 µM"


Entry COC1C(=O)CCC2(CO2)C1(O)C1(C)OC1CC=C(C)C (configuration not stated) — recorded TGI = > 100 µM

Entry "C/C(CCN(C)C)=N\OC(=O)c1ccccc1" — recorded TGI = > 100 µM

Entry "CC(=O)Nc1cc2c3c(cccc3c1)-c1ccccc1-2" — recorded TGI = > 100 µM

Entry "N#CCCN(c1ccc(C=O)cc1)S(=O)(=O)c1ccccc1" — recorded TGI = > 100 µM

---

Tested on: HCT-116 colon
Run Description: NCI tumour cell line growth inhibition, 48 h
Overview of recorded TGI for various molecules

Examples with answers:
[[record]]
chem_smiles = "O=c1oc2ccccc2n1P(=O)(Oc1ccc(Cl)cc1)n1c(=O)oc2ccccc21"
result_value = "> 100 µM"

[[record]]
chem_smiles = "Cc1cc(N=Cc2c(CO)cnc(C)c2O)c(N=Cc2c(CO)cnc(C)c2O)cc1C"
result_value = "> 100 µM"


Proceeding to the next molecule to report its TGI.
Entry "CC(=O)Nc1cc2c3c(cccc3c1)-c1ccccc1-2" — recorded TGI = > 100 µM

---

Overview of recorded TGI for various molecules
System: KM12 colon
Run Description: NCI tumour cell line growth inhibition, 48 h

[[record]]
molecule = "Nc1ncnc2c1ccn2-c1cccc(NC(=O)c2ccc(N3CCOCC3)c(C(F)(F)F)c2)c1"
tested_target = "KM12 colon"
result_value = "10.4 µM"

[[record]]
molecule = "Cc1cc(=O)oc2c(C)c3oc(CBr)cc3cc12"
tested_target = "KM12 colon"
result_value = "42.1 µM"

[[record]]
molecule = "COc1ccc(C=O)cc1OS(=O)(=O)C(F)(F)C(F)(F)C(F)(F)C(F)(F)F"
tested_target = "KM12 colon"
result_value = "> 74.4 µM"

[[record]]
molecule = "C[C@]12CCc3nn(-c4ccccc4)nc3C1CC[C@@H]1C2CC[C@]2(C)C(=O)CCC12 (some centres undefined)"
tested_target = "KM12 colon"
result_value = "> 100 µM"

[[record]]
molecule = "O=C(CC(=O)N1N=C(N(c2ccccc2)c2ccccc2)CC1c1ccccc1)Nc1cccc(Cl)c1 (centres undefined)"
tested_target = "KM12 colon"
result_value = "> 100 µM"

[[record]]
molecule = "C/C(=N\\O)c1cccc(Nc2c3ccccc3nc3occc23)c1"
tested_target = "KM12 colon"
result_value = "> 100 µM"


Entry COc1ccc([C@@H]2OC(=O)C3C2C(=O)O[C@H]3c2ccc(OC)cc2)cc1 (some centres undefined) — recorded TGI = > 100 µM

Entry "Cc1cccc(-c2nc(-c3cnccn3)n(Cc3ccccc3)n2)c1" — recorded TGI = > 100 µM

Entry COc1cc(C2CC(c3cccc(Nc4ccnc5cc(Cl)ccc45)c3)=NN2c2ccccc2)cc(OC)c1OC (centres undefined) — recorded TGI = > 100 µM

Entry O=CC1OC(=O)c2cc(O)c(O)c(O)c2-c2c(cc(O)c(O)c2O)C(=O)OC1C1OC(=O)c2cc(O)c(O)c(O)c2-c2c(O)c(O)c3oc(=O)c4c(c(O)c(O)c5oc(=O)c2c3c54)-c2c(cc(O)c(O)c2O)C(=O)OCC1O (centres undefined) — recorded TGI = > 100 µM

---

Tested on: SN12C renal
Run Description: NCI tumour cell line growth inhibition, 48 h
Result Type: TGI

Examples with answers:
[[record]]
compound = "CN(/N=C/C=N/N(C)C1=NCCN1)C1=NCCN1"
result_value = "> 100 µM"

[[record]]
compound = "CC/C=C\\C=C/C(=O)N/C=C/CCC"
result_value = "> 100 µM"

[[record]]
compound = "C[C@]12CCc3nn(-c4ccccc4)nc3C1CC[C@@H]1C2CC[C@]2(C)C(=O)CCC12 (stereo partly drawn)"
result_value = "> 100 µM"

[[record]]
compound = "COc1cc(CC(=O)O)c([N+](=O)[O-])cc1OC"
result_value = "> 100 µM"

[[record]]
compound = "CCCC(C(=O)OC)C1N=C(NC#N)N(Cc2ccccc2)C1=O (stereo not drawn)"
result_value = "> 100 µM"


Entry "C[C@]12CC[C@H]3[C@@H](CC[C@]4(O)C[C@@H](O[C@@H]5O[C@H](CO)[C@@H](O[C@@H]6OC[C@@H](O)[C@H](O)[C@H]6O)[C@H](O)[C@H]5O)CC[C@]34C=O)[C@@]1(O)CC[C@@H]2C1=CC(=O)OC1" — recorded TGI = 2.49 µM

Entry "COc1cc(C(=O)NN=C2c3ccccc3-c3ccccc32)cc(OC)c1OC" — recorded TGI = 41.2 µM

Entry "CC1=CC[C@@H](C(C)(C)O)C[C@@H]1O" — recorded TGI = > 5000 µM
